Entry source: PubChem BioAssay (NCI)

Tested on: HOP-92 NSCLC
run_description: NCI tumour cell line growth inhibition, 48 h; in the data active means GI50 below about 0.43 µM; inactive means the rest
Thanks in advance; please answer with one of these: yes for active, no for inactive

Field: outcome | Entry: CC(=O)Nc1ccc(S(=O)(=O)c2ccc(NC(C)=O)cc2)cc1
no

Field: outcome | Entry: N#C/C(=C\c1ccc([N+](=O)[O-])s1)c1nc2cc(Br)ccc2s1
yes

Short answer needed: outcome of this test for C[CH2][Sn]([Cl])([CH2]C)[CH2]C ?
yes

What call does the record list for c1ccc(C2=NN[C@H](c3cn(-c4ccccc4)nc3-c3ccccc3)C2)cc1 ?
no

* * *

System: SNB-19 CNS
run_description: NCI tumour cell line growth inhibition, 48 h
Recorded measurements of TGI, one per entry

Respond only with TGI recorded for CCN(CC)C(=O)N[C@@H](Cc1ccccc1)C(=O)NC
> 100 µM
